Taken from paper PMC12461331.

assay: in vitro
measurement.conditions: CD1, mouse, microsomes, pH 7.4
# microsomal CLint at 0.5 μM per entry
# value in µL/min/mg; strip the unit string

Sample records with microsomal CLint at 0.5 μM:
C[C@H](c1cccc2ccccc12)N1CCC(C(=O)NCc2ccc(Cl)cc2)CC1 [Compound 12]    226
COc1ccc(CNC(=O)C2CCN([C@H](C)c3ccccc3)CC2)cc1 [Compound 3]    94
C[C@@H](c1cccc2ccccc12)N1CCC(C(=O)NCC2CCCCC2)CC1 (racemic) [Compound 11]    354
COc1ccc(CC(=O)NC2CCN([C@@H](C)c3cccc4ccccc34)CC2)cc1 [Compound 7]    378
COc1ccc(CNC(=O)C2CCN([C@@H](C)c3ccccc3)CC2)cc1 [Compound 2]    300
Cc1ccc(CNC(=O)C2CCN([C@@H](C)c3cccc4ccccc34)CC2)cc1 (stereo in doubt) [Compound 5]    292

Next:
Ask: Need microsomal CLint at 0.5 μM, item Cc1ccc(CNC(=O)C2CCN([C@H](C)c3cccc4ccccc34)CC2)cc1 [Compound 4]
Reply: 214
